Data provenance: PubChem BioAssay AID1159580

# assay.text: chemical genetic growth profiling, strain panel (AID 1159580);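 also: tested at 20 µM; growth read once vehicle control cultures reached saturation at 30 °C; lower values mean less growth of the strain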
# settings: S. cerevisiae deletion strains, growth OD, locus YMR125W, strain sto1, stronger effect = lower value
The whole screen tested about 5,500 compounds, of which about 2,000 (36%) were called active. Another 18% or so got no clear call; they are omitted. This is one part of the list.
Could you please mark t for values of normalized growth below 1 and f for values at or above it?

Nc1ccc(C(=O)Oc2ccccc2)c(O)c1 : t
CC(C(=O)O)[C@H]1CCC2C3CC=C4C[C@@H](O)CC[C@]4(C)C3CC[C@@]21C (stereo not given in full) : f
CN(C)CCC=C1c2ccccc2CCc2ccccc21 : t
O=c1c2ccccc2oc2ccccc12 : t
CC(=O)Nc1cccc(O)c1 : f

Strictly below 1 in normalized growth? O=c1cc(-c2ccc(O)cc2)oc2ccc(O)cc12
t
